Each recorded value in this set is attributed to patent US9452980B2.

Test Target: rat TAAR1 (Rattus norvegicus (Rat), UniProt Q923Y9)
Sequence (Q923Y9 whole entry): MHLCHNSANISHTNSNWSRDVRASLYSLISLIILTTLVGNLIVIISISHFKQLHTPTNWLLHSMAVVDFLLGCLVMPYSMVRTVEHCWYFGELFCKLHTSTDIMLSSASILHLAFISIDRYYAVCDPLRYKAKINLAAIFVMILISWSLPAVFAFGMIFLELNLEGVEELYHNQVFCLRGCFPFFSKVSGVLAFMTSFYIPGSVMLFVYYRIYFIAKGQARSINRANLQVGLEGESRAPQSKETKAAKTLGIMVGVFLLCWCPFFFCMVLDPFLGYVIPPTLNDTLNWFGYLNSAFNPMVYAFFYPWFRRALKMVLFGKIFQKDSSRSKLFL
Test Name: Radioligand binding assay on rat TAAR1
Setup Conditions: rat TAAR1, HEK-293 membranes, second value of cell mouse/rat; read-out: Ki (μM) rat
Where a name gives a salt, the structure may show the parent alone.
Would you mind telling me the reported Ki of each entry?
One number for each entry, in µM.

INSERT INTO measurements (compound, reported_value) VALUES
  ('CC(C(=O)Nc1ccc(C2CCNC2)cc1)c1cccc(C(F)(F)F)c1 (racemic)', 0.0033);

Hi, could you look up Ki for each item in my list?
1. O=C(Nc1ccc(Cl)cc1)Nc1ccc(C2CCNC2)cc1 (racemic) [Example 5, hydrochloride]
2. O=C(Nc1ccc(C2CCNC2)cc1)NC1CCCCC1 (racemic) [Example 10, hydrochloride]
3. N#Cc1ccc(C(=O)Nc2ccc(C3CCNC3)cc2)cc1 (racemic) [Example 55, hydrochloride]

**A:**
1. 0.0027
2. 0.309
3. 0.0745
